The measured values listed here are drawn from PubChem BioAssay (NCI).

# Tested on: HCT-15 colon
# EXPERIMENTAL_PROTOCOL: NCI tumour cell line growth inhibition, 48 h
In this section, each of the molecules is paired with its reported TGI.

# MOLECULE, SYSTEM_NAME, READOUT_VALUE
records = [
    ("NS(=O)(=O)c1nnc(NS(=O)(=O)c2ccc(F)cc2)s1", "HCT-15 colon", "> 100 µM"),
    ("CC(=O)OC1CC2C(C)(C)C(=O)C=C[C@]2(C)C2CC[C@]3(C)C(OCC(=O)[C@H]3c3ccoc3)[C@]12C (some centres undefined)", "HCT-15 colon", "15.8 µM"),
    ("Cc1nc(N)nn1C1OCC(O)C(O)C1O (centres undefined)", "HCT-15 colon", "> 100 µM"),
    ("O=C(c1cccs1)N(C(=S)N1CCN(c2ccccc2)CC1)C1CCCCC1", "HCT-15 colon", "> 100 µM"),
    ("C/C=C1\\C(=O)O[C@H]2C/C(C)=C/CC/C(C)=C/CC[C@@]3(C)O[C@@H]3C[C@@H]12", "HCT-15 colon", "> 100 µM"),
    ("CCOC(=O)c1nnn(-c2no[n+]([O-])c2-c2ccc(OC)cc2)c1COc1cccc2cccnc12", "HCT-15 colon", "7.03 µM"),
]

Problem: Given the molecule O=C(Nc1ccccc1)c1cc(S(=O)(=O)n2cc[nH]c2=O)c(S)cc1Cl , write its reported TGI.
Result: > 100 µM

Problem: Given the molecule CC(=O)C1C(=O)C(=O)N(c2ccc(Cl)c(Cl)c2)C1=O (centres undefined) , write its reported TGI.
Result: > 100 µM

Problem: Given the molecule CCCCOC(=O)C(=O)C(CC(CC)C(=O)c1ccccc1)C(=O)C=C(C)C (centres undefined) , write its reported TGI.
Result: > 100 µM

Problem: Given the molecule CC1(C)CC[C@]2(C(N)=O)CC[C@]3(C)C(=CC[C@@H]4[C@@]5(C)C/C(=C/c6cccnc6)C(=O)C(C)(C)[C@@H]5CC[C@]43C)[C@@H]2C1 , write its reported TGI.
Result: 4.31 µM

Problem: Given the molecule O=CN/N=C/c1ccc(Cl)c([N+](=O)[O-])c1 , write its reported TGI.
Result: > 100 µM

---

# Test system: OVCAR-4 ovarian
# EXPERIMENTAL_PROTOCOL: NCI tumour cell line growth inhibition, 48 h
MEASURED_QUANTITY: TGI

Known results for compounds:
# COMPOUND, TGI
records = [
    ("CCC1(O)CC(OC2CC(N(C)C)C(OC3CC(O)C(OC4CCC(=O)C(C)O4)C(C)O3)C(C)O2)c2c(cc3c(c2O)C(=O)c2c(O)ccc(O)c2C3=O)C1C(=O)OC (centres undefined)", "0.214 µM"),
    ("CC(C)=CC(=O)OC1C(CO)OC(Oc2cc(O)c3c(=O)cc(-c4ccc(O)c(O)c4)oc3c2)C(OC2OC(C)C(O)C(O)C2O)C1O (centres undefined)", "> 100 µM"),
    ("COC(=O)c1cc(C)ccc1/C=C1\\Cc2cccc(C)c2C1=O", "> 100 µM"),
    ("O=C(O)CCCNS(=O)(=O)c1ccccc1", "> 100 µM"),
    ("COC(=O)C1=C(C(=O)OC)C2(CCCCCC2=O)OC1=O (centres undefined)", "> 100 µM"),
]

Problem: Provide measured TGI on OVCAR-4 ovarian for c1ccc2c3ccn4ccc5c6ccccc6[nH]c5c4c-3nc2c1 please.
Result: 0.552 µM

---

# Test system: CCRF-CEM leukemia
# EXPERIMENTAL_PROTOCOL: NCI tumour cell line growth inhibition, 48 h
MEASURED_QUANTITY: TGI (µM)
Numeric answer only, unit µM assumed.

# COMPOUND, SYSTEM_NAME, MEASURED_QUANTITY, READOUT_VALUE
measured = [
    ("O=C(Nc1ccc(Cl)c(Cl)c1)C(=O)C(C(=O)c1ccccc1F)C1OC(=O)c2ccccc21 (stereo unspecified)", "CCRF-CEM leukemia", "TGI", 50.9),
    ("N#CC1=C(N)Oc2c(ccc3ccccc23)C1c1cccs1 (stereo unspecified)", "CCRF-CEM leukemia", "TGI", 11.4),
    ("CC(=O)c1cc(I)c(O)c2ncccc12", "CCRF-CEM leukemia", "TGI", 4.45),
    ("CCN(CC)CCCNc1[nH]ncc2cc3c(nc4ccccc43)c(C)c12", "CCRF-CEM leukemia", "TGI", 21.3),
]

Problem: Given the compound Oc1cccc(-c2nc(-c3n[nH]c(=S)n3-c3ccccc3)cc3c2[nH]c2ccccc23)c1 , write its reported TGI.
Result: 18.7

---

# Test system: EKVX NSCLC
# EXPERIMENTAL_PROTOCOL: NCI tumour cell line growth inhibition, 48 h
MEASURED_QUANTITY: TGI

Problem: Provide measured TGI on EKVX NSCLC for CN(C)CCNc1ccc(NCC[N+](C)(C)Cc2ccc([N+](=O)[O-])cc2)c2c1C(=O)c1ccccc1C2=O please.
Result: > 25 µM

Problem: Provide measured TGI on EKVX NSCLC for Cc1ccc(S(=O)(=O)N(CCN2C(=O)c3ccccc3C2=O)c2cc3c4c(c2)Oc2cc(N(CCN5C(=O)c6ccccc6C5=O)S(=O)(=O)c5ccc(C)cc5)cc5c2C4(C)c2c(cc(N(CCN4C(=O)c6ccccc6C4=O)S(=O)(=O)c4ccc(C)cc4)cc2O5)O3)cc1 please.
Result: > 100 µM

Problem: Provide measured TGI on EKVX NSCLC for O=C1c2cccc(O)c2C(=O)c2cccc(O)c21 please.
Result: > 100 µM

Problem: Provide measured TGI on EKVX NSCLC for COc1cc2c[n+](C)c3c4cc(OC)c(OC)cc4c(OCc4ccccc4)cc3c2cc1OC please.
Result: > 100 µM

---

In this section, each of the molecules is paired with its reported TGI.
# Test system: M14 melanoma
# EXPERIMENTAL_PROTOCOL: NCI tumour cell line growth inhibition, 48 h
Numeric answer only, unit µM assumed.

Known results for molecules:
# MOLECULE, QUANTITY_UNIT, READOUT_VALUE
records = [
    ("O=C(CCCCN1CCOCC1)Nc1ccc(Cn2nnc3c2C(=O)c2nnn(Cc4ccc(NC(=O)CCCCN5CCOCC5)cc4)c2C3=O)cc1", "µM", 0.903),
    ("CCCCCCCCCCC(O)CCCCCCC(=O)O (stereo not given)", "µM", 44.3),
    ("Cc1cc(N(CCNc2ccnc3cc(Cl)ccc23)Cc2cccs2)nc(Cl)n1", "µM", 3.19),
]

Problem: Provide measured TGI on M14 melanoma for CN1CCN(CC(=O)N2c3ccccc3Sc3cc4ccccc4cc32)CC1 please.
Result: 29

---

# System: HOP-92 NSCLC
# EXPERIMENTAL_PROTOCOL: NCI tumour cell line growth inhibition, 48 h
In this section, each of the molecules is paired with its reported TGI.

Known results for molecules:
# MOLECULE, TGI
records = [
    ("O=C(CCCCN1CCOCC1)Nc1ccc(Cn2nnc3c2C(=O)c2nnn(Cc4ccc(NC(=O)CCCCN5CCOCC5)cc4)c2C3=O)cc1", "1.76 µM"),
    ("C/C=C/[C@@H](C(=O)OC)N1C(=O)c2ccccc2[C@H]1O", "> 100 µM"),
    ("O=CN/N=C/c1ccc(Cl)c([N+](=O)[O-])c1", "21.1 µM"),
]

Problem: Provide measured TGI on HOP-92 NSCLC for CCOC(=O)/C(C#N)=C/c1ccc(SCc2ccco2)c([N+](=O)[O-])c1 please.
Result: > 100 µM

Problem: Provide measured TGI on HOP-92 NSCLC for O=C(Nc1ccccc1)c1cc(S(=O)(=O)n2cc[nH]c2=O)c(S)cc1Cl please.
Result: > 100 µM

Problem: Provide measured TGI on HOP-92 NSCLC for CCOc1ccc2nc(NC(=O)C(=O)C(C#N)CC(C)(C)C=O)sc2c1 (centres undefined) please.
Result: > 100 µM

Problem: Provide measured TGI on HOP-92 NSCLC for CC(=O)N(O)CCCCCNC(=O)CCC(=O)N(O)CCCCCNC(=O)CCC(=O)N(O)CCCCCN please.
Result: > 100 µM

Problem: Provide measured TGI on HOP-92 NSCLC for C=CCOC(=O)C[C@H](NC(=O)[C@H](Cc1ccc(O)cc1)NCC(F)(F)F)C(=O)OCC=C please.
Result: > 100 µM

Problem: Provide measured TGI on HOP-92 NSCLC for CC(=O)N1CCC(Nc2cc(C(=O)NC[C@H](O)CN3CCc4ccccc4C3)ncn2)CC1 please.
Result: > 100 µM

---

# Tested on: COLO 205 colon
# EXPERIMENTAL_PROTOCOL: NCI tumour cell line growth inhibition, 48 h
MEASURED_QUANTITY: GI50

# MOLECULE, GI50
data = [
    ("CC(=O)OC1CC2C(C)(C)C(=O)C=C[C@]2(C)C2CC[C@]3(C)C(OCC(=O)[C@H]3c3ccoc3)[C@]12C (some centres undefined)", "1.91 µM"),
    ("CC(=O)OC1Oc2ccccc2-c2oc(=O)c(-c3ccc(F)cc3)cc21 (centres undefined)", "36.3 µM"),
    ("CN(C)CCCNCc1ccc(-c2ccc(F)c(Cl)c2)o1", "4.52 µM"),
]

Proceeding to the next molecule to report its GI50.
Problem: Given the molecule CC1(C)CC[C@]2(C(N)=O)CC[C@]3(C)C(=CC[C@@H]4[C@@]5(C)C/C(=C/c6cccnc6)C(=O)C(C)(C)[C@@H]5CC[C@]43C)[C@@H]2C1 , write its reported GI50.
Result: 1.86 µM
